- Tested on: SK-HEP-1
- procedure.details: MTS cytotoxicity assay, SK-HEP-1
- assay.setup: read-out: IC50 ± SD; SK-HEP-1, MTS, 48 h, mean of three independent experiments
measurement.kind: IC50 (µM)
Reply numerically in µM, unit not repeated.

Sample N.N.[Cl][Pt][Cl] [Cisplatin, cisplatin, reference compound] — what was its IC50?
20.6

* * *

- System: SK-HEP-1
- procedure.details: MTS cytotoxicity assay, SK-HEP-1
- assay.setup: Homo sapiens, SK-HEP1, 48 h, read-out: IC50 ± SD
pIC50: −log10 of the molar value.
measurement.kind: pIC50

In the examples that follow, each entry is paired with its recorded pIC50.
>>> df
                                   compound  measurement_kind  result
0  O=c1c2cc(O)c(O)cc2oc2cc(O)cc(O)c12 [Compound 3, 1,3,6,7-tetrahydroxylxanthone]             pIC50  < 4.40
1  O=c1c2c(O)cccc2oc2cc(O)cc(O)c12 [Compound 2, 1,3,8-trihydroxyxanthone]             pIC50  < 4.40

Sample COc1cc(O)cc2oc3cc(O)c(O)cc3c(=O)c12 [Compound 5, 3,6,7-trihydroxy-1-methoxyxanthone] — what was its pIC50?
< 4.40

* * *

- Test system: PLC/PRF/5
- procedure.details: MTS cytotoxicity assay, PLC/PRF/5
- assay.setup: Homo sapiens, PLC-PRF-5, 48 h, read-out: IC50 ± SD
measurement.kind: IC50

compound	measurement.kind	result
COc1cc2oc3ccccc3c(=O)c2cc1O [Compound 1, 2-hydroxy-3-methoxyxanthone]	IC50	> 40 µM

Next:
Sample O=c1c2cc(O)ccc2oc2cc(O)cc(O)c12 [Compound 4, 1,3,7-trihydroxyxanthone] — what was its IC50?
> 40 µM

* * *

- System: SK-HEP-1
- procedure.details: MTS cytotoxicity assay, SK-HEP-1
- assay.setup: Homo sapiens, SK-HEP1, 48 h, read-out: IC50 ± SD
Let's look at some compounds and their measured IC50.

compound	IC50
C=C(C)[C@@H]1Cc2c(cc(O)c3c(=O)c4ccc(O)c(O)c4oc23)OC1C=C(C)C (stereo partly drawn)	> 40 µM
O=c1c2cc(O)ccc2oc2cc(O)cc(O)c12 [Compound 4, 1,3,7-trihydroxyxanthone]	> 40 µM
COc1cc2oc3ccccc3c(=O)c2cc1O [Compound 1, 2-hydroxy-3-methoxyxanthone]	> 40 µM
C=C(C)C(CC=C(C)C)Cc1c(O)cc(O)c2c(=O)c3ccc(O)c(O)c3oc12 (stereo not drawn)	31.1 µM
CC(=O)O[C@H]1C(=O)[C@@]2(C)[C@H]([C@H](OC(=O)c3ccccc3)[C@]3(O)C[C@H](OC(=O)[C@H](O)[C@@H](NC(=O)c4ccccc4)c4ccccc4)C(C)=C1C3(C)C)[C@]1(OC(C)=O)CO[C@@H]1C[C@@H]2O [Taxol, reference compound]	< 0.01 µM

Sample COc1cc2oc3cc(O)cc(O)c3c(=O)c2cc1O [Compound 7, 1,3,7-trihydroxy-6-methoxyxanthone] — what was its IC50?
37.1 µM

* * *

Let's look at some compounds and their measured IC50.
- Tested on: PLC/PRF/5
- procedure.details: MTS cytotoxicity assay, PLC/PRF/5
- assay.setup: Homo sapiens, PLC-PRF-5, 48 h, read-out: IC50 ± SD

In the examples that follow, each entry is paired with its recorded IC50.
compound	result
COc1cc2oc3cc(O)cc(O)c3c(=O)c2cc1O [Compound 7, 1,3,7-trihydroxy-6-methoxyxanthone]	> 40 µM
O=c1c2cc(O)c(O)cc2oc2cc(O)cc(O)c12 [Compound 3, 1,3,6,7-tetrahydroxylxanthone]	> 40 µM
C=C(C)[C@@H]1Cc2c(cc(O)c3c(=O)c4ccc(O)c(O)c4oc23)OC1C=C(C)C (stereo partly shown) [Compound 9, Hypxanthone B]	30.8 µM
O=c1c2c(O)cccc2oc2cc(O)cc(O)c12 [Compound 2, 1,3,8-trihydroxyxanthone]	> 40 µM

Sample COc1cc(O)cc2oc3cc(O)c(O)cc3c(=O)c12 [Compound 5, 3,6,7-trihydroxy-1-methoxyxanthone] — what was its IC50?
> 40 µM

Consider next the compound CC(=O)O[C@H]1C(=O)[C@@]2(C)[C@H]([C@H](OC(=O)c3ccccc3)[C@]3(O)C[C@H](OC(=O)[C@H](O)[C@@H](NC(=O)c4ccccc4)c4ccccc4)C(C)=C1C3(C)C)[C@]1(OC(C)=O)CO[C@@H]1C[C@@H]2O [Taxol, reference compound] in the same way.
< 0.01 µM

Consider next the compound C=C(C)C(CC=C(C)C)Cc1c(O)cc(O)c2c(=O)c3ccc(O)c(O)c3oc12 (stereo not shown) [Compound 10, calycinoxanthon D] in the same way.
24.9 µM

Origin of values: paper PMC6804229
